# test system: Human recombinant PDE10A2 (Homo sapiens (Human), UniProt Q9Y233)
# Sequence (Q9Y233 267-1055): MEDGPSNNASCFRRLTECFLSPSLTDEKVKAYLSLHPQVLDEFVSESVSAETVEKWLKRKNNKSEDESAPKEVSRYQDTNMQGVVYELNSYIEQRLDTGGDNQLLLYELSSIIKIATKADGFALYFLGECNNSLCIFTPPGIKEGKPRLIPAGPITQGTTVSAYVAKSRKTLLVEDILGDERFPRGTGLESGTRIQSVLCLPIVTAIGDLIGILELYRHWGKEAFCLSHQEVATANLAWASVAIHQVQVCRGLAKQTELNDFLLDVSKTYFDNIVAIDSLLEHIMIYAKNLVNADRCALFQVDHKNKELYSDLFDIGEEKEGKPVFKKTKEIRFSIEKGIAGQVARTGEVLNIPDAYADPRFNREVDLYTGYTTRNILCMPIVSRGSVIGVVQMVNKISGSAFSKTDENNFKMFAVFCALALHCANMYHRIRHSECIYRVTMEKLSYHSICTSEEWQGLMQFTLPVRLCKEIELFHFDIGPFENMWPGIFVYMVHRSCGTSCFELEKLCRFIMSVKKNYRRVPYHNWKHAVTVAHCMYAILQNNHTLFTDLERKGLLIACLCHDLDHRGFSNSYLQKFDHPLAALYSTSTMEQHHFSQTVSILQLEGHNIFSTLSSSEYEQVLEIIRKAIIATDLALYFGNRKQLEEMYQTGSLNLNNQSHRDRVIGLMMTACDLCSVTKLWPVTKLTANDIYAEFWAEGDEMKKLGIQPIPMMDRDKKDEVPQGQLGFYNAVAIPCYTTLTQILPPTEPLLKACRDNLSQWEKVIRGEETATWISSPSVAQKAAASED
# test summary: In vitro hPDE10a (human recombinant PDE10A2, scintillation proximity assay)
# assay conditions: human recombinant PDE10A2, 60 nM cAMP, 60 min at room temperature; read-out: hPDE10a2 IC50
Counter-ions that a name gives are not always drawn.
property name: IC50 (nM)

Guide cases for IC50, answers given:
stdin: Given the compound O=C(O)CN1CCC(c2cnc(N3CCOCC3)c3nc(COc4ccc5ccccc5n4)cn23)CC1 [Cpd 110, trifluoroacetic acid salt] , what is its reported IC50?
stdout: 407

stdin: Report IC50 for O=C(O)c1ccc(-c2cnc(N3CCOCC3)c3nc(/C=C/c4ccc5ccccc5n4)cn23)nc1 please.
stdout: 12

P: CN1C(=O)NS(=O)(=O)c2cc(-c3cnc(N4CCOCC4)c4nc(/C=C/c5ccc6ccccc6n5)cn34)ccc21 [Cpd 24, trifluoroacetic acid salt]
Q: OC(c1ccc(-c2cnc(N3CCOCC3)c3nc(/C=C/c4ccc5ccccc5n4)cn23)cc1)(C(F)(F)F)C(F)(F)F
R: CC(C)[C@H](NC(=O)c1ccc(-c2cnc(N3CCOCC3)c3nc(/C=C/c4ccc5ccccc5n4)cn23)cc1)C(=O)O [Cpd 44, trifluoroacetic acid salt]
S: CC(=O)N1CCN(c2ncc(-c3ccc(N4CCNCC4)nc3)n3cc(COc4ccc5ccccc5n4)nc23)CC1
stdin: Ascending by IC50, please. Field: ranking. Enter the labels in the order requested.
stdout: P, R, Q, S
(P: 3 nM, R: 14 nM, Q: 30 nM, S: 224 nM)
